Listed next: entries and their corresponding raw competing-Ab binding signal.
molecular target: T1, human Sdc2 (human, UniProt P34741 19-144, limits assumed); test: Octet tandem binning; saturating Ab f9 19838-6-E17-A
T1 construct: Antigen of the Octet tandem binning, loaded on biosensors at 100 nM; also called huSdc2; hSdc2
T1 sequence (P34741 19-144 limits assumed): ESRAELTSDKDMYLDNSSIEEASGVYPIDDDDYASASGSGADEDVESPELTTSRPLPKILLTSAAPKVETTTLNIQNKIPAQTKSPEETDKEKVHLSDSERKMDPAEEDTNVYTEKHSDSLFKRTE

- binder: "R4M-P3-E06 (antibody, human IgG1, kappa, V domains shown, human IgG1 kappa from the phage campaign) VH: EVQLVESGGGVVQPGGSLRLSCAASGFTFSNYGMHWVRQAPGKGLEWVATISYDGTKKYYPDSVRGRFTISRDNSENMLYLQMDSLRLEDTAVIYCAKDLVSGSRYGFAFDSWGPGTLVTVSS VL: DIVMTQSPLSLPVTLGQPASISCRSSQSLVHSDGNTYLNWFQQRPGQSPRRLIYKVSNRDSGVPDRFSGTGSGTDFTLKISRVEADDVGVYYCMQGTHWPPIFGQGTRLEIKR"
  raw competing-Ab binding signal: 0.231
- binder: "R3-P3-C11 (antibody, human IgG1, kappa, V domains shown, human IgG1 kappa from the phage campaign) VH: EVQLVESGGGLVQPGRSLRLACEASGFTFNNYAVHWVRQAPGKGLEWVAVISYDGTNKYYSDSMKGRFTISRDNSKNTLYLQINSLRVEDTAVYFCARGNYVRRDSFDIWGQGTMVTVSS VL: DIQMTQSPPSLSASVGDRVTITCRASQSISSYLNWYQQKPGKAPKLLIYGASSLQSGVPLRFSGSGSGADFTLTISSLQPEDFATYYCQQSYISPITFGQGTRLEIKR"
  raw competing-Ab binding signal: 0.542
- binder: "R4M-P3-A12 (antibody, human IgG1, kappa, V domains shown) VH: EVQLVESGGGVVQPGGSLRLSCAASGFTFSDHYMSWIRQAPGKGLEWVSYLSGSGTSIYYADSVKGRFTISRDNAKKSLYLQMNSLRAEDTAVYYCARVGPAAGNAFDIWGQGTMVTVSS VL: QSVLTQPPSASGTPGQRVTISCSGSSSNIGSNYVYWYQQLPGTAPKLLIYRNNQRPSGVPDRFSGSKSGTSASLAITGLQAEDEADYYCQSYDSSLSGVVFGGGTKLTVLR"
  raw competing-Ab binding signal: 0.115
